- System: ncRNAs (SEQ ID NO 28-89)
- assayProtocol: ncRNA arrays of melanocytes, keratinocytes, normal skin, melanoma cell lines and patient samples
- Design: species or system human
- experimentalSetup: melanoma patient 10 sample compared to normal skin
As shown below, each of these substances has a reported ncRNA array expression, patient 10 value.
parameterMeasured: ncRNA array expression, patient 10

SEQ ID NO 53 (ATATATTTAGATAGTACTATGTTTCGTTTTCTTCCGATTTCAGGGATCCTTTTGTCTTAC; listed as DNA, chemistry not given here; listed as Homo sapiens) | −3.16
SEQ ID NO 49 (CGATGGCTTGTCATTGTCCCCTGTCCTGGAACAATAAAGCAAGTGCCTTGTGGTCTCACT; listed as DNA, chemistry not given here; listed as Homo sapiens) | −4.429
SEQ ID NO 33 (TATTGAATGTACACAAGTAATGATGGAGTTTGATTATATGGTTCATTTTCATTTATCCTA; DNA, backbone and methylation of C not given here; listed as Homo sapiens) | 1.984
SEQ ID NO 42 (TAGACATAGGTTAGAGGGGGAACAGTGCTTAAAATTCCATGGAACTAAGATTTTTTTTAT; listed as DNA, chemistry not given here; listed as Homo sapiens) | −0.8067
SEQ ID NO 51 (ATGTATTTTAGGTAATAAGATTTTTATCAATTGTGTCTTTTTCTTTCTTTGCTTTCTATA; listed as DNA, chemistry not given here; listed as Homo sapiens) | 0.8572
SEQ ID NO 36 (TATTTGTGACTAACTGTATAACAGGTTATTTTAGTTTCTGTTCTGTGGGAAGTGTAAAGC; listed as DNA, chemistry not given here; listed as Homo sapiens) | 2.818
SEQ ID NO 28 (CTTAATGTATCTAAGGTTGGCTTAATCCTGTCTAAAATCAAGGTATTGGACTAGAACAAT; DNA, backbone and methylation of C not given here; listed as Homo sapiens) | −0.2665
SEQ ID NO 58 (ATTTATTTGACTCTAAAATGACAATATAACAACTATAAGGAATTGATATGATGTCCTTAC; listed as DNA, chemistry not given here; listed as Homo sapiens) | −1.223
SEQ ID NO 32 (ATTCAAATCTTCATGAATGGCATCACTTGCTTTAGACCCATTTTTTTTTTATTGGTCAGA; DNA, backbone and methylation of C not given here; listed as Homo sapiens) | 0.7286
